- Assay System: RNA-binding protein pos-1 (Caenorhabditis elegans, UniProt G5EF15)
- Sequence (G5EF15 whole entry, the tested form may be a part): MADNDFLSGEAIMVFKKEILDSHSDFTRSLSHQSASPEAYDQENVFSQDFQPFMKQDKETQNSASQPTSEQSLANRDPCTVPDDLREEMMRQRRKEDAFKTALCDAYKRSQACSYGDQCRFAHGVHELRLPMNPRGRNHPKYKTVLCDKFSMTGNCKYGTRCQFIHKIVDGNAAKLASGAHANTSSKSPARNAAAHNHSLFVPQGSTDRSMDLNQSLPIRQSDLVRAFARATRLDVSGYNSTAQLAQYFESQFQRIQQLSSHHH
- Test Method Notes: inhibitors of POS-1/mex-3 RNA binding, dose response, biochemical, fluorescence polarization (AID 1964);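 also: purified POS-1 fused to maltose binding protein made in E. coli; potency of compounds blocking POS-1 binding to fluorescent RNA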
Active and inactive are the calls of the source.
Provide the reported EC50 of each item.

Lab note: measured EC50 of CC1(C)CC(=O)C2=C(C1)OC(/N=C/N1CCOCC1)=C(C#N)C2c1ccccc1 (stereo not given) was > 300 µM (not active)

Lab note: measured EC50 of "O=[N+]([O-])c1cc(-c2ccc(/C=N/n3cnnc3)o2)ccc1Cl" was 30.1 µM (active)

Lab note: measured EC50 of "O=C1CSC(N/N=C/c2cccs2)=N1" was > 300 µM (not active)

Lab note: measured EC50 of O=C(O)c1cc(O)c2c(c1)[C@H]([C@H]1c3cc(C(=O)O)cc(O)c3C(=O)c3c(O[C@@H]4O[C@H](CO)[C@@H](O)[C@H](O)[C@H]4O)cccc31)c1cccc(OC3O[C@H](CO)[C@@H](O)[C@H](O)[C@H]3O)c1C2=O (stereo not given in full) was > 300 µM (not active)

Lab note: measured EC50 of COc1ccc(C2C(C(=O)c3ccco3)=C(O)C(=O)N2c2nnc(C)s2)cc1 (stereo not given) was 109 µM (active)

====

- Assay System: DNA repair protein RAD52 homolog (Homo sapiens, UniProt P43351)
- Sequence (P43351 whole entry): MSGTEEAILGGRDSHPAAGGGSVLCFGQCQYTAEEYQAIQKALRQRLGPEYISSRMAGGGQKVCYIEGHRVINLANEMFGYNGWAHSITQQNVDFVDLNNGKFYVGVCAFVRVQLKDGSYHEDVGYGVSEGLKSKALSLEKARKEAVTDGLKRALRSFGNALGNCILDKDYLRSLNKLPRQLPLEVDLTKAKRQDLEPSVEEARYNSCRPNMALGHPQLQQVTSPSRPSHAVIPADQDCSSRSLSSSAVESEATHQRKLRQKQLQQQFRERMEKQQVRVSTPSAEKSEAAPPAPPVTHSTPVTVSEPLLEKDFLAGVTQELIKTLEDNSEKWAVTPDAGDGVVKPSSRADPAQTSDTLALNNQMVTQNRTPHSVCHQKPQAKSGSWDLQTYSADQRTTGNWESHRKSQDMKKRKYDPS
- Assay type: functional, biochemical
Calls of active or inactive are those of the source.
Provide the reported AC50 of each item.

Lab note: measured AC50 of "Cc1cccn2c(=O)c3cc(C(=O)NC4CCCC4)c(=N)n(CCCN4CCOCC4)c3nc12" was 9.37 µM (active)

Lab note: measured AC50 of "CCCCCc1ccc(OCCCC[n+]2ccc(C)cc2)c(CCCCC)c1" was 21.7 µM (active)

Lab note: measured AC50 of "COc1cccc(-c2cc(NC=O)c3ncc(-c4cccc(C(=O)NCCN(C)C)c4)n3c2)c1" was 3.43 µM (active)

Lab note: measured AC50 of "CN1CCN(c2ccc(Nc3ccnc4cc(Cl)ccc34)cc2)CC1" was 2.47 µM (active)

Lab note: measured AC50 of "CC(C)Nc1ccc(Nc2ccnc3cc4ccccc4cc23)cc1" was 0.782 µM (active)

====

Provide the reported EC50 of each item.
- Assay System: Zinc finger protein mex-5 (Caenorhabditis elegans, UniProt Q9XUB2)
- Sequence (Q9XUB2 whole entry): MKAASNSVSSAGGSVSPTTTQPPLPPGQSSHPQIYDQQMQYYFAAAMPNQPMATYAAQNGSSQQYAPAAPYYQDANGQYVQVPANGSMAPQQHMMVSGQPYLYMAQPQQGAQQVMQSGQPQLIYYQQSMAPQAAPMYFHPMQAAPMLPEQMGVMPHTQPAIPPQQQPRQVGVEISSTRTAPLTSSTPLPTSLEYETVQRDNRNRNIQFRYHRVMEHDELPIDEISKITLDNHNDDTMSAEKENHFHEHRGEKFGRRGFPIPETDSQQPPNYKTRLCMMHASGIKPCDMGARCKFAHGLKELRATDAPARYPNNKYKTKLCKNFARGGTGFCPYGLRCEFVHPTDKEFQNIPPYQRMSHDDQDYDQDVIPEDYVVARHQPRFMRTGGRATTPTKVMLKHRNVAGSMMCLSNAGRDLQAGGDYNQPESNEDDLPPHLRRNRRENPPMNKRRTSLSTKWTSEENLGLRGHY
- Test Method Notes: MEX-5/TCR-2 RNA interaction inhibitors, dose response, biochemical, C. elegans, fluorescence polarization (AID 1960)
Active and inactive are the calls of the source.

Lab note: measured EC50 of "Cn1ncc(Cl)c1C(=O)N/N=C/c1cccc(OC2CSC2)c1" was > 300 µM (not active)

Lab note: measured EC50 of "O=C1CSC(N/N=C/c2cccs2)=N1" was > 300 µM (not active)

Lab note: measured EC50 of COC/C=C/C1=CC2=CC(=O)C(C)(OC(=O)C3CCCC3)C(=O)C2=CO1 (stereo not given) was > 300 µM (not active)

Lab note: measured EC50 of "CCCn1c(O)c(C#N)c(C)c(CN2CCCCC2)c1=O" was > 300 µM (not active)

Lab note: measured EC50 of "O=[N+]([O-])c1cc(-c2ccc(/C=N/n3cnnc3)o2)ccc1Cl" was 32.5 µM (active)

Lab note: measured EC50 of N#CC1=C(N)OC2=C(C(=O)CCC2)C1c1cc2c(cc1Cl)OCO2 (stereo not given) was > 300 µM (not active)

Lab note: measured EC50 of "COc1ccc(N2C(=O)NC(=O)/C(=C/c3ccc([N+](=O)[O-])s3)C2=O)cc1" was 24.3 µM (active)

Lab note: measured EC50 of O=C(O)c1cc(O)c2c(c1)[C@H]([C@H]1c3cc(C(=O)O)cc(O)c3C(=O)c3c(O[C@@H]4O[C@H](CO)[C@@H](O)[C@H](O)[C@H]4O)cccc31)c1cccc(OC3O[C@H](CO)[C@@H](O)[C@H](O)[C@H]3O)c1C2=O (stereo not given in full) was 7.25 µM (active)

Lab note: measured EC50 of COc1ccc(C2C(C(=O)c3ccco3)=C(O)C(=O)N2c2nnc(C)s2)cc1 (stereo not given) was 216 µM (active)

Lab note: measured EC50 of CC1(C)CC(=O)C2=C(C1)OC(/N=C/N1CCOCC1)=C(C#N)C2c1ccccc1 (stereo not given) was > 300 µM (not active)

====

Provide the reported AC50 of each item.
- Assay System: UniProtKB P33261
- Sequence (P33261 whole entry): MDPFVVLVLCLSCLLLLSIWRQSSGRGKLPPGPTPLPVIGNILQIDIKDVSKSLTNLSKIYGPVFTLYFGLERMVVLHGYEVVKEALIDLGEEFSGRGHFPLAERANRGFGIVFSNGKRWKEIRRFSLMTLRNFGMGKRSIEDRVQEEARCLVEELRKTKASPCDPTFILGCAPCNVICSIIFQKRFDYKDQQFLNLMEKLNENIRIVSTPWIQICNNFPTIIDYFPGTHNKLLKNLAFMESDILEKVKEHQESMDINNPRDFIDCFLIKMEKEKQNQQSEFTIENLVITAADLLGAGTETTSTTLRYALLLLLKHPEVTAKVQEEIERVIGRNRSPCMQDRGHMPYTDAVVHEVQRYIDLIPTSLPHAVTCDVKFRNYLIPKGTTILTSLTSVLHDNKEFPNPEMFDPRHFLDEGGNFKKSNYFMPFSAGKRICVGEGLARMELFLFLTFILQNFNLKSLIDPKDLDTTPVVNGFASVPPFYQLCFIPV
- Test Method Notes: Cytochrome panel assay with activity outcomes. Panel member name: p450-cyp2c19 Compounds with AC50 equal or less than 10 uM are considered active
- Format: functional
- Condition Parameters: read-out: AC50

For the molecule "O=Nc1c(-c2c(O)[nH]c3ccccc23)[nH]c2ccccc12" , the measured AC50 on UniProtKB P33261 was 39.8 µM (inconclusive)

For the molecule "O=[N+]([O-])/C=C\c1cc2ccccc2[nH]1" , the measured AC50 on UniProtKB P33261 was 5.01 µM (inconclusive)

For the molecule "CN(Cc1ccco1)c1ncncc1-c1ccoc1" , the measured AC50 on UniProtKB P33261 was 39.8 µM (inconclusive)

For the molecule "Cc1ccc(-c2cc[nH]c(=S)n2)cc1" , the measured AC50 on UniProtKB P33261 was 14.1 µM (inconclusive)

For the molecule "Fc1cccc(NC(S)=NCCCN2CCOCC2)c1" , the measured AC50 on UniProtKB P33261 was 17.8 µM (inconclusive)

For the molecule "CN(Cc1ccco1)c1ccnc(-c2ccoc2)n1" , the measured AC50 on UniProtKB P33261 was 25.1 µM (inconclusive)

For the molecule "CC(=O)/C=C1\Nc2ccccc2OC1=O" , the measured AC50 on UniProtKB P33261 was 7.94 µM (inconclusive)

For the molecule "CCCCn1cnc2c(cnn2-c2ccc(F)cc2)c1=O" , the measured AC50 on UniProtKB P33261 was 2.51 µM (inconclusive)

For the molecule "Cc1nnc(-c2cnn(-c3ccccc3)c2N)n1Cc1ccncc1" , the measured AC50 on UniProtKB P33261 was 11.2 µM (inconclusive)

For the molecule CCC(C)Nc1nc(OCC(F)(F)F)nc(OCC(F)(F)F)n1 (configuration not stated) , the measured AC50 on UniProtKB P33261 was 3.16 µM (inconclusive)

For the molecule "Cc1cccc(NC(=NS(=O)(=O)c2ccccc2)C(F)(F)F)c1" , the measured AC50 on UniProtKB P33261 was 22.4 µM (inconclusive)

For the molecule "C[C@@H](NC(=O)/C(C#N)=C/c1ccc(O)c(O)c1)c1ccccc1" , the measured AC50 on UniProtKB P33261 was 39.8 µM (inconclusive)

====

- Test Method Notes: Shn3 3'UTR reporter inhibitors, dose response, cell-based, Clone20 osteoblasts, firefly luciferase, cherry-picked (AID 624132);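 also: firefly luciferase luminescence from reporter carrying the Shn3 3'UTR in osteoblasts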
- Type: functional
Calls of active or inactive are those of the source.
Reported Metric: AC50

Lab note: measured AC50 of Oc1c(C(Nc2cccc(C(F)(F)F)c2)c2ccncc2)ccc2cccnc12 (centres undefined) was 5.8 µM (active)

Lab note: measured AC50 of COCC1CCCCN1C(=O)c1cc(COc2ccc3ncccc3c2)on1 (centres undefined) was 0.33 µM (active)

Lab note: measured AC50 of "CC[C@H](C)[C@H]1O[C@]2(CC[C@@H]1C)C[C@@H]1C[C@@H](CC=C(C)[C@@H](O[C@H]3C[C@H](OC)[C@@H](O[C@H]4C[C@H](OC)[C@@H](O)[C@H](C)O4)[C@H](C)O3)[C@@H](C)C=CC=C3CO[C@@H]4[C@H](O)C(C)=C[C@@H](C(=O)O1)[C@]34O)O2" was 6.32 µM (active)

Lab note: measured AC50 of "C#CCN(C[C@@H]1[C@@H](OC(=O)NCC2CCCCC2)[C@@H](OC(=O)NCC2CCCCC2)Cn2c(=O)ccc(=O)n21)S(=O)(=O)c1ccc(C)cc1" was 2.49 µM (active)

====

- Assay System: Kallikrein-7 (Homo sapiens)
- Sequence (P49862 whole entry): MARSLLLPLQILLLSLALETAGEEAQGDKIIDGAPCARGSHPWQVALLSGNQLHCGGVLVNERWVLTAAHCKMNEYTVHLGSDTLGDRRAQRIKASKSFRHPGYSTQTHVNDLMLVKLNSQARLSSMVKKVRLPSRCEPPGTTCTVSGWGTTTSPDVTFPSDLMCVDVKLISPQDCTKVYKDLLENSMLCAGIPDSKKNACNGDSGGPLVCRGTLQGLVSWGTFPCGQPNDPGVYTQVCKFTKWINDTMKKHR
- Test Method Notes: Fluorescence Intensity-based biochemical primary high throughput dose response assay to identify activators of kallikrein-7 (K7) zymogen.
Calls of active or inactive are those of the source.
Reported Metric: EC50

Lab note: measured EC50 of CC1CC(C)CN(C(=O)c2cc3c(=O)n4ccccc4nc3s2)C1 (centres undefined) was > 69.5 µM (inactive)

Lab note: measured EC50 of "O=C(O)CCc1nn2c3ccccc3nc2n(CCN2CCCCC2)c1=O" was 34.8 µM (inactive)

Lab note: measured EC50 of "COC(=O)c1cc(-c2ccc(OC)cc2)nc2nc(SC)[nH]c(=O)c12" was 48 µM (inactive)

Lab note: measured EC50 of COc1c(N2CCN(C(=S)Nc3ccccc3F)C(C)C2)c(F)cc2c(=O)c(C(=O)O)cn(C3CC3)c12 (centres undefined) was > 69.5 µM (inactive)
